# ASSAYED_TARGET: MAGL (Homo sapiens, UniProt Q99685)
# Sequence (Q99685 whole entry): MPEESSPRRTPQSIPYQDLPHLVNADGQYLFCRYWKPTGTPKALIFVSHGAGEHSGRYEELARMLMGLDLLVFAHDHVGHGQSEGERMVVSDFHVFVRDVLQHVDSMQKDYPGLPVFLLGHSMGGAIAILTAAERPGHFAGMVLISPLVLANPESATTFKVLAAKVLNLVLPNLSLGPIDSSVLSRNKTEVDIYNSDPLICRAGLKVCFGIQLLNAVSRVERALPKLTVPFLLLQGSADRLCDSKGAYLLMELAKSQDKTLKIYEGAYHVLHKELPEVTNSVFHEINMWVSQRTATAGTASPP
# METHOD_SUMMARY: In vitro competitive activity-based protein profiling, PC3 human cell membrane proteomes
# Assay type: biochemical
# Set-up: endogenous in cells; host or cells: PC3 human cells (membrane proteome)
# RECORDED_CONDITIONS: human PC3 membrane proteome
The threshold is 0.005 µM. Values of IC50 beneath it are tagged 1; values meeting or exceeding it are tagged 0.

Quick check: IC50 of O=C(NCc1cccc(C(F)(F)F)n1)C1CC12CCN(C(=O)OC(C(F)(F)F)C(F)(F)F)CC2 (single isomer, unassigned) [Example 76] under 0.005 µM? 1

Quick check: IC50 of CS(=O)(=O)Nc1ccc(NC(=O)C2CC23CCN(C(=O)OC(C(F)(F)F)C(F)(F)F)CC3)cn1 (single isomer, unassigned) [Example 181] under 0.005 µM? 0

Quick check: IC50 of O=C(Nc1cncc(F)c1)C1CC12CCN(C(=O)OC(C(F)(F)F)C(F)(F)F)CC2 (single isomer, unassigned) [Example 40] under 0.005 µM? 1

Quick check: IC50 of Cn1ccc(NC(=O)C2CC23CCN(C(=O)OC(C(F)(F)F)C(F)(F)F)CC3)n1 (single isomer, unassigned) [Example 127] under 0.005 µM? 0

Quick check: IC50 of O=C(OC(C(F)(F)F)C(F)(F)F)N1CCC2(CC1)CC2C(=O)N1CCc2cnc(C(F)(F)F)nc2C1 (single isomer, unassigned) [Example 57] under 0.005 µM? 1

Quick check: IC50 of O=C(Nc1nccs1)C1CC12CCN(C(=O)OC(C(F)(F)F)C(F)(F)F)CC2 (single isomer, unassigned) [Example 139] under 0.005 µM? 0

Quick check: IC50 of Cn1nccc1NC(=O)C1CC12CCN(C(=O)OC(C(F)(F)F)C(F)(F)F)CC2 (single isomer, unassigned) [Example 135] under 0.005 µM? 0

Quick check: IC50 of CS(=O)(=O)Nc1ccc(NC(=O)C2CC23CCN(C(=O)OC(C(F)(F)F)C(F)(F)F)CC3)cn1 (single isomer, unassigned) [Example 180] under 0.005 µM? 0

Quick check: IC50 of Cn1ccc(NC(=O)C2CC23CCN(C(=O)OC(C(F)(F)F)C(F)(F)F)CC3)n1 (single isomer, unassigned) [Example 126] under 0.005 µM? 0

Where do the numbers come from? From patent US20240018120A1.
